As shown below, each of these compounds has a reported ED50 value.
Tested on: Rattus norvegicus
Test: Inhibitory activity for de novo cholesterol synthesis from [14C]acetate was determined in rat after oral administration (in vivo)
Format: functional
parameter_measured: ED50

compound=CC[C@H](C)C(=O)O[C@H]1C[C@@H](C)C=C2C=C[C@H](C)[C@H](CC[C@@H](O)C[C@@H](O)CC(=O)[O-])[C@H]21.[Na+] target="Rattus norvegicus" result="0.4 mg/kg"
compound="CC[C@H](C)C(=O)O[C@H]1C[C@H](O)C=C2C=C[C@H](C)[C@H](CC[C@@H](O)C[C@@H](O)CC(=O)[O-])[C@H]21.[Na+] [PRAVASTATIN SODIUM]" target="Rattus norvegicus" result="0.75 mg/kg"
compound=Cc1cc(C)c(COP(=O)(O)C[C@@H](O)CC(=O)O)c(-c2ccc(F)c(C)c2)c1 target="Rattus norvegicus" result="> 10 mg/kg"
compound=Cc1cc(C)c(CCP(=O)(O)C[C@@H](O)CC(=O)O)c(-c2ccc(F)c(C)c2)c1 target="Rattus norvegicus" result="6.7 mg/kg"
compound=CC(C)c1c(C#CP(=O)(O)C[C@@H](O)CC(=O)O)n(-c2ccc(F)cc2)c2ccccc12 target="Rattus norvegicus" result="1.1 mg/kg"
compound=O=C(O)C[C@H](O)CP(=O)(O)C#CC1=C(c2ccc(F)cc2)c2ccccc2C12CCCC2 target="Rattus norvegicus" result="0.38 mg/kg"

###

Molecular target: 3-hydroxy-3-methylglutaryl-coenzyme A reductase (Rattus norvegicus, UniProt P51639)
Sequence (P51639 whole entry): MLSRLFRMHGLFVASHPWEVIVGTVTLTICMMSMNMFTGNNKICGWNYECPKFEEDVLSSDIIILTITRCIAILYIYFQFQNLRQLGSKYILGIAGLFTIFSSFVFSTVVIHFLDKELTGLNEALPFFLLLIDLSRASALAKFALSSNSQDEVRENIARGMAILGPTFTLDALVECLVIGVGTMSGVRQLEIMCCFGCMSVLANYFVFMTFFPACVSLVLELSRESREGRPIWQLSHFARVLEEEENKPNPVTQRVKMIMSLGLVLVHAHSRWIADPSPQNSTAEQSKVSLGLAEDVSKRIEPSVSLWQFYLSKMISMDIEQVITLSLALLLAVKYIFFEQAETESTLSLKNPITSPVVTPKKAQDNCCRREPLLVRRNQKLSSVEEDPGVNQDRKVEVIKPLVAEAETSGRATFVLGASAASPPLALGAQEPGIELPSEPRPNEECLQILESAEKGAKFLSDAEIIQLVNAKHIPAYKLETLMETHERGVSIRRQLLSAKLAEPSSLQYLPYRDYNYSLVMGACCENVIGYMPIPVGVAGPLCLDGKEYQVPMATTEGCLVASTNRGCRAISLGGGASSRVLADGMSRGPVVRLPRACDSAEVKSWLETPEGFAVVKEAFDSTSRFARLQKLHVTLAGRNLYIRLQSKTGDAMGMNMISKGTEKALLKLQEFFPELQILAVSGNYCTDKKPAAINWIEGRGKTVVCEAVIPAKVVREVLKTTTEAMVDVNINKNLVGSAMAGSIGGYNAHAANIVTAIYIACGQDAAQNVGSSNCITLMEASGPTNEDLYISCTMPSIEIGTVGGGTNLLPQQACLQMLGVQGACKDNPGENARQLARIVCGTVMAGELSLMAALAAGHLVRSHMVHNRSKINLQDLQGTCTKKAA
Label 1 (yes) when IC50 < 3000 nM; otherwise 0 (no).

molecule=Cc1cc(-c2ccc(F)c(C)c2)c(C#CP(=O)(O)C[C@@H](O)CC(=O)O)c(C(C)C)c1 category_label="1 (yes)"
molecule=CC(C)n1c(CCP(=O)(O)C[C@@H](O)CC(=O)O)c(-c2ccc(F)cc2)c2ccccc21 category_label="1 (yes)"
molecule="COP(=O)(C[C@@H](O)CC(=O)O)OCc1c(C)cc(C)cc1-c1ccc(F)c(C)c1 (stereo not given in full)" category_label="0 (no)"
molecule=Cc1cc(C)c(/C=C/P(=O)(O)C[C@@H](O)CC(=O)O)c(-c2ccc(F)c(C)c2)c1 category_label="1 (yes)"
molecule=CC(C)c1c(C#CP(=O)(O)C[C@@H](O)CC(=O)O)n(-c2ccc(F)cc2)c2ccccc12 category_label="1 (yes)"
molecule="COP(=O)(C[C@@H](O)CC(=O)O)NCc1c(C)cc(C)cc1-c1ccc(F)c(C)c1 (stereo not given in full)" category_label="0 (no)"
molecule=CCc1c(C#CP(=O)(O)C[C@@H](O)CC(=O)O)n(-c2ccc(F)cc2)c2ccccc12 category_label="1 (yes)"
molecule=O=C(O)C[C@H](O)CP(=O)(O)C#CC1=C(c2ccc(F)cc2)c2ccccc2C12CCCC2 category_label="1 (yes)"
molecule="COP(=O)(CCc1c(C)cc(C)cc1-c1ccc(F)c(C)c1)C[C@@H](O)CC(=O)O (stereo not given in full)" category_label="0 (no)"
molecule=Cc1cc(C)c(COP(=O)(O)C[C@@H](O)CC(=O)O)c(-c2ccc(F)c(C)c2)c1 category_label="1 (yes)"
molecule=O=C(O)C[C@H](O)CP(=O)(O)C#CC1=C(c2ccc(F)cc2)c2ccccc2C12CC2 category_label="1 (yes)"
molecule=Cc1cc(C)c(CCCP(=O)(O)C[C@@H](O)CC(=O)O)c(-c2ccc(F)c(C)c2)c1 category_label="0 (no)"
molecule="CC[C@H](C)C(=O)O[C@H]1C[C@H](O)C=C2C=C[C@H](C)[C@H](CC[C@@H](O)C[C@@H](O)CC(=O)[O-])[C@H]21.[Na+] [PRAVASTATIN SODIUM]" category_label="1 (yes)"
molecule=CC(C)n1c(C#CP(=O)(O)C[C@@H](O)CC(=O)O)c(-c2ccc(F)cc2)c2ccccc21 category_label="1 (yes)"
